Numbers sourced from ChEMBL document CHEMBL4808148.

Target: Protein deacetylase HDAC6 (Homo sapiens)
Conditions: at 10 µM
Screen size: about 5,600 compounds; about 390 (7%) showed an effect of 50% or more. The sample as a whole holds a higher share of strong results than the screen did.
Given measured inhibition, output YES if it is greater than or equal to 20% and NO if not.

compound	cat
CC(=O)Oc1ccccc1C(=O)Oc1ccccc1C(=O)O	YES
CCOC(=O)c1ccc(OCCC2CCN(c3ccc(C)nn3)CC2)cc1	NO

Threshold query (inhibition >= 20%) on `COc1cc2c(cc1-c1c(C)noc1C)ncc1[nH]c(=O)n([C@H](C)c3ccccn3)c12`
NO

Threshold query (inhibition >= 20%) on `Nc1ccc(C(=O)NCC(=O)O)cc1`
NO

Threshold query (inhibition >= 20%) on `Nc1nc(N)c2nc(-c3ccccc3)c(N)nc2n1`
NO

Threshold query (inhibition >= 20%) on `O=C(N[C@@H]1CC[C@@H](c2cccc(F)c2F)CN(CC(F)(F)F)C1=O)N1CCC(n2c(=O)[nH]c3ncccc32)CC1`
YES

Threshold query (inhibition >= 20%) on `COc1ccccc1C(=O)Nc1cc2c(cc1N1CCCC1)n(C)c(=O)n2C`
YES

Threshold query (inhibition >= 20%) on `O=C(Nc1ccc2[nH]ccc2c1)c1ccccc1`
YES

###

Target: Protein deacetylase HDAC6 (Homo sapiens) (UniProt Q9UBN7)
Settings: at 10 µM
Screen size: about 5,600 compounds; about 390 (7%) showed an effect of 50% or more. The sample holds strong results, similar compounds and a random draw of the others, so the mix is not that of the screen.
// reported inhibition for each item listed
Express the result in % but write the number alone.

compound	system	output.unit	reported
CC(C)NC(=O)N1CC[C@H](NC2=Nc3cc(F)ccc3N(CC(F)F)c3ccc(Cl)cc32)C1	Protein deacetylase HDAC6 (Homo sapiens) (UniProt Q9UBN7)	%	29.2
CCN(CC)c1ccc(/C=N/NC(=O)c2ccc(O)cc2)cc1	Protein deacetylase HDAC6 (Homo sapiens) (UniProt Q9UBN7)	%	80
Cc1ccsc1C(=CCCN1CCC[C@@H](C(=O)O)C1)c1sccc1C	Protein deacetylase HDAC6 (Homo sapiens) (UniProt Q9UBN7)	%	20.9
CC(N)(C(=O)O)c1ccc(-c2nnn[nH]2)cc1 (stereo not given)	Protein deacetylase HDAC6 (Homo sapiens) (UniProt Q9UBN7)	%	-2

With those in mind, consider the next compound.
Hello, please tell me recorded inhibition for this one: `O=C1NC(=O)c2cc(Nc3ccc(F)cc3)c(Nc3ccc(F)cc3)cc21`
41.3

###

// reported inhibition for each item listed
Target: Protein deacetylase HDAC6 (Homo sapiens) (UniProt Q9UBN7)
Sequence (whole entry): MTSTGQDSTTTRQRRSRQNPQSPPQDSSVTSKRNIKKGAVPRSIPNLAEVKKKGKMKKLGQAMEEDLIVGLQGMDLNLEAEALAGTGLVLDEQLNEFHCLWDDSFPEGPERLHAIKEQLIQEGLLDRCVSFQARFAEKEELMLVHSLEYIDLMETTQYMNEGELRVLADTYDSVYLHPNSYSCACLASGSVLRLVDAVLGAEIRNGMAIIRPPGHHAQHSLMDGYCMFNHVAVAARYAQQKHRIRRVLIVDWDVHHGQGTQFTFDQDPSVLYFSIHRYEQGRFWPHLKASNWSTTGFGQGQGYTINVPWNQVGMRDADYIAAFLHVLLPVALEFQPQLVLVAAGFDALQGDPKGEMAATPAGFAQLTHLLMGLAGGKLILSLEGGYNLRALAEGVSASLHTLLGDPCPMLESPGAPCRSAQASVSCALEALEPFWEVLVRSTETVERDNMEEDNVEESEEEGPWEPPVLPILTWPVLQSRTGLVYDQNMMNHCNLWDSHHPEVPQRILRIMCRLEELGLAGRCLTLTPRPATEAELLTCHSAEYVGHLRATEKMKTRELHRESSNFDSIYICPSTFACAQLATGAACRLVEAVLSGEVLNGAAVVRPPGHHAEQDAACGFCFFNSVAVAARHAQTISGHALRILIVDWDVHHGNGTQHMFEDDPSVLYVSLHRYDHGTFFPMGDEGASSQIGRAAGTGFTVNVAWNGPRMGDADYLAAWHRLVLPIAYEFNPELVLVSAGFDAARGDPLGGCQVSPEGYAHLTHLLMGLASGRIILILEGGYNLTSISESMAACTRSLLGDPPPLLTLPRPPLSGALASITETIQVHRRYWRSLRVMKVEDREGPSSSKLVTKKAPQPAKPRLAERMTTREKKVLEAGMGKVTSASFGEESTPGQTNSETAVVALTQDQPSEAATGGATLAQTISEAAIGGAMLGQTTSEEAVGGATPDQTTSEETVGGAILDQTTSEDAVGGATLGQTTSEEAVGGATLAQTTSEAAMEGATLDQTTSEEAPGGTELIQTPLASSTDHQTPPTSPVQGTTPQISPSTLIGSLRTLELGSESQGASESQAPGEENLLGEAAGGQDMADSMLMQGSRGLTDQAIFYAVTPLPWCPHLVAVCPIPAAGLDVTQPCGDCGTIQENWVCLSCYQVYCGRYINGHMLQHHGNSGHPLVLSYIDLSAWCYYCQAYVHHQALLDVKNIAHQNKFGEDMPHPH
Conditions: at 10 µM
Screen size: about 5,600 compounds; about 390 (7%) showed an effect of 50% or more. The list comes from a sample in which strong results are over-represented; it also holds close analogues and randomly drawn compounds.
Express the result in % but write the number alone.

See these solved cases before continuing.
compound	system	inhibition / %
O[C@H]1[C@H](O)[C@@H](O)[C@H](O)[C@@H](O)[C@H]1O	Protein deacetylase HDAC6 (Homo sapiens) (UniProt Q9UBN7)	22.8
Cc1ccc(-c2cn3c4c(sc3n2)CCCC4)cc1	Protein deacetylase HDAC6 (Homo sapiens) (UniProt Q9UBN7)	98
CNc1cc2c(Nc3cccc(Br)c3)ncnc2cn1	Protein deacetylase HDAC6 (Homo sapiens) (UniProt Q9UBN7)	9.09
CC(C)(O)CNc1nc(Nc2ccnc(C(F)(F)F)c2)nc(-c2cccc(C(F)(F)F)n2)n1	Protein deacetylase HDAC6 (Homo sapiens) (UniProt Q9UBN7)	36.2
O=C1Cc2c([nH]c3ccc(Br)cc23)-c2ccccc2N1	Protein deacetylase HDAC6 (Homo sapiens) (UniProt Q9UBN7)	89.3
CCCn1c(=O)[nH]c(=O)c2nc[nH]c21	Protein deacetylase HDAC6 (Homo sapiens) (UniProt Q9UBN7)	9.19

Hello, please tell me recorded inhibition for this one: `O=[N+]([O-])c1cnc(Sc2nnc(O)n2-c2ccc3c(c2)OCCO3)s1`
11.2

Hello, please tell me recorded inhibition for this one: `CCc1cc(C(C)=O)c(O)cc1OCCCCCC(C)(C)c1nn[nH]n1`
8.67

Hello, please tell me recorded inhibition for this one: `Cc1csc(NC(=O)CSc2ccc(-c3ccccc3)nn2)n1`
31.4

Hello, please tell me recorded inhibition for this one: `O=C(CN1C2=NCCN2c2ccccc21)c1ccc(-c2ccccc2)cc1`
11.4

###

Biological target: Protein deacetylase HDAC6 (Homo sapiens) (UniProt Q9UBN7)
Sequence (whole entry): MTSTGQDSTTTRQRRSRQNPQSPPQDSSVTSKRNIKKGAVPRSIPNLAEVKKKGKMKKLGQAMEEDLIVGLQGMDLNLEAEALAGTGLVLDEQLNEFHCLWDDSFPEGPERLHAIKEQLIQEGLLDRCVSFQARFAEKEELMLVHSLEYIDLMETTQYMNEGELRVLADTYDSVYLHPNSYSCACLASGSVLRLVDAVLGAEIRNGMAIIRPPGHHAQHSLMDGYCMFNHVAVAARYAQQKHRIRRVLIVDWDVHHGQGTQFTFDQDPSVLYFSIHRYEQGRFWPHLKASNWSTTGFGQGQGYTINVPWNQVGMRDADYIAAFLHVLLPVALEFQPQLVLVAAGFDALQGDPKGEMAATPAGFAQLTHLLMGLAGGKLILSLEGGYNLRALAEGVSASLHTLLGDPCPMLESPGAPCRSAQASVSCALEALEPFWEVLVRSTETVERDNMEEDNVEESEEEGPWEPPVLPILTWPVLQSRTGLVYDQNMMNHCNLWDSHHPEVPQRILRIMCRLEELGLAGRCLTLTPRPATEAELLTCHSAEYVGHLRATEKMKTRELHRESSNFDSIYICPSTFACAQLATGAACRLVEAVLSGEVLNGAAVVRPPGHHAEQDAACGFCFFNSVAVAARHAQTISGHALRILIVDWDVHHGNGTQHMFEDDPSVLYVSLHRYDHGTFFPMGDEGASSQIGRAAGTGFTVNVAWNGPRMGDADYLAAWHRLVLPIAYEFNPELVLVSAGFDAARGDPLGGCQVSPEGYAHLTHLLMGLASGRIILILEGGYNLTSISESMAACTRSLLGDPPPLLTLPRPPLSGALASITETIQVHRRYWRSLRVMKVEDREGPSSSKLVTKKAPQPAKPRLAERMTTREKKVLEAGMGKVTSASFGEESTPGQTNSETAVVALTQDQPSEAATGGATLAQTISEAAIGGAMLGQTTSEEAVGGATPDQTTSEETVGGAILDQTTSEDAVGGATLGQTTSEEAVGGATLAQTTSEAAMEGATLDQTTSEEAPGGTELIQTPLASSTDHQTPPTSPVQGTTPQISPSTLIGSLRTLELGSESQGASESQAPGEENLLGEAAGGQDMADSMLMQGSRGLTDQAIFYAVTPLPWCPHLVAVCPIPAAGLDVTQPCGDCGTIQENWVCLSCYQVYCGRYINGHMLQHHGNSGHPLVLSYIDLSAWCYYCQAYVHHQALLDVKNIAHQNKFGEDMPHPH
Settings: at 10 µM
In all, about 5,600 compounds went through this assay and about 390 (7%) showed an effect of 50% or more. The sample as a whole holds a higher share of strong results than the screen did.
property.name: inhibition (%)
Express the result in % but write the number alone.

See these solved cases before continuing.
molecule	system	inhibition, %
CCC(=N\O)/C(C)=C/c1ccc(F)cc1	Protein deacetylase HDAC6 (Homo sapiens) (UniProt Q9UBN7)	47.7
Clc1ccc2nsnc2c1NC1=NCCN1	Protein deacetylase HDAC6 (Homo sapiens) (UniProt Q9UBN7)	-9.25
COc1cccc(OC)c1OCCNCC1COc2ccccc2O1 (centres undefined)	Protein deacetylase HDAC6 (Homo sapiens) (UniProt Q9UBN7)	-6.9
NCCCC(N)C(=O)O (centres undefined)	Protein deacetylase HDAC6 (Homo sapiens) (UniProt Q9UBN7)	-5.26
CC#CCC(C)[C@H](O)/C=C/[C@@H]1[C@H]2C/C(=C/CCCC(=O)O)C[C@H]2C[C@H]1O (some centres undefined)	Protein deacetylase HDAC6 (Homo sapiens) (UniProt Q9UBN7)	-9.51

With those in mind, consider the next molecule.
Hello, please tell me recorded inhibition for this one: `O=c1c2c(c1=O)N(CCP(=O)(O)O)CCCN2`
12.1
